Could you please report measured inhibition at 1 µM for the items listed next?
Test system: human orexin-2 receptor (OX2R) (Homo sapiens)
Construct: expressed in transfected cells; host or cells: CHO cells (G418 selection)
Sequence (O43614 whole entry): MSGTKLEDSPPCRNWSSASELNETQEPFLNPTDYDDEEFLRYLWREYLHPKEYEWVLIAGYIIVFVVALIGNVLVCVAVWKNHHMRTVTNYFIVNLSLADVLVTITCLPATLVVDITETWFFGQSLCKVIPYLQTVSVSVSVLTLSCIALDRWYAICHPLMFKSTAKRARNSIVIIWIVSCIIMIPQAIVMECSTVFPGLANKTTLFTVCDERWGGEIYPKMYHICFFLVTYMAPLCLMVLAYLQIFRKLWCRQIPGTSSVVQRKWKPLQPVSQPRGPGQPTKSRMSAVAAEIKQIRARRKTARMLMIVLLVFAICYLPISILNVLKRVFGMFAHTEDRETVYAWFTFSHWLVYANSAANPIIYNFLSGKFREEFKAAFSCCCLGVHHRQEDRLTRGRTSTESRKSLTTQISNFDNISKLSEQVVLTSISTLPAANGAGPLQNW
Assay overview: In vitro orexin antagonism assay: intracellular calcium measurement (FLIPR), orexin-A 3 nM as agonist
Format: cell-based
Experimental setup: read-out: OX2R, % Inh. @ 1 uM
Procedure: Antagonistic activities on both orexin receptors have been measured for each example compound using the following procedure: In Vitro Orexin Antagonism Measurement Assay: Intracellular Calcium Measurements: […] Within the Fluorescent Imaging Plate Reader (FLIPR Tetra, Molecular Devices), antagonists are added to the plate in a volume of 10 μL/well, incubated for 120 min and finally 10 μL/well of agonist is added. […] The calculated IC50values may fluctuate depending on the daily cellular assay performance. […]
Numbers only, in %.

Guide cases for inhibition at 1 µM, answers given:
- Compound smiles: "O=C(c1c(-c2ccccc2)nn2c1COCC2)N1CCC[C@H]1Cn1cc(-c2ccc(F)cn2)cn1"
  Readout value: 35
- Compound smiles: "O=C(c1c(-c2ccccc2F)nn2ccccc12)N1[C@H](Cn2ccc(-c3ccc(F)cc3)n2)C[C@@H]2C[C@@H]21"
  Readout value: 50
- Compound smiles: "O=C(c1c(-c2ccc(F)cc2)nn2ccccc12)N1CCC[C@H]1CNc1ccc(F)cn1"
  Readout value: 3.2
- Compound smiles: "O=C(c1c(-c2ccccc2)nc2ncccn12)N1CCC[C@H]1CNc1ccc(F)cn1"
  Readout value: -3.4
- Compound smiles: "O=C(c1nn2cccnc2c1-c1ccccn1)N1CCC[C@H]1Cc1nc(-c2ccc(F)cn2)no1"
  Readout value: 43

Provide inhibition at 1 µM values for the following items, in order.
1. O=C(c1nn2ccccc2c1-c1ccccn1)N1CCC[C@H]1Cc1nc(-c2ccccn2)no1
2. O=C(c1c(-c2ccccc2)nc2ccc(F)cn12)N1CCC[C@H]1Cn1ccc(-c2ccccn2)n1
3. O=C(c1c(-c2ccccc2F)nc2ccccn12)N1CCC[C@H]1COc1ccc(C(F)(F)F)cn1
4. O=C(c1nn2ccccc2c1-c1ccccn1)N1CCC[C@H]1Cn1cc(-c2ccccn2)cn1
5. O=C(c1c(-c2ccccc2)nc2cc(C(F)(F)F)ccn12)N1CCC[C@H]1Cn1cc(-c2ccccn2)cn1

Return:
[29, 48, 41, 82, 62]

For every item below, please supply its inhibition at 1 µM.
1. O=C(c1c(-c2ccccc2F)nn2c1COCC2)N1CC[C@H]1Cn1ccc(-c2ccc(F)cc2)n1
2. O=C(c1nn2cccnc2c1-c1ccccn1)N1CCC[C@H]1Cn1ccc(-c2ccccn2)n1

Return:
19
61

Could I get inhibition at 1 µM for every one of these entries?
1. O=C(c1nc2ccccn2c1-c1ccccc1)N1C2CCC1(COc1ccc(C(F)(F)F)cn1)CC2
2. O=C(c1nn2c(c1-c1ccccn1)COCC2)N1CCC[C@H]1Cn1cc(-c2ccccn2)cn1
3. O=C(c1c(-c2ccccc2)nn2ccccc12)N1CCC[C@H]1Cn1ccc(-c2ccccc2)n1
4. O=C(c1nc2ccccn2c1-c1ccccc1)N1[C@@H]2CC[C@@H](C2)[C@H]1COc1ccc(C(F)(F)F)cn1
5. O=C(c1c(-c2ccccc2)nn2ccccc12)N1CCC[C@H]1Cc1nc(-c2ccc(F)cn2)no1
6. O=C(c1nn2c(c1-c1ccccc1)OCCC2)N1CCC[C@H]1COc1ccc(C(F)(F)F)cn1
7. O=C(c1nn2c(c1-c1ccccc1)OCCC2)N1CCC[C@H]1Cn1ccc(-c2ccccc2)n1

Return:
[2, 33, 98.5, 57, 63, 42, 98]

Required: inhibition at 1 µM, one value per molecule below.
1. O=C(c1nn2ccccc2c1-c1ccccc1)N1CCC[C@H]1Cn1cc(-c2ccc(F)cn2)cn1
2. C[C@@]1(COc2cnc(C(F)(F)F)cn2)CCCN1C(=O)c1c(-c2ccccc2)nn2c1COCC2

Return:
1: 86; 2: 15
